All figures here come from ChEMBL document CHEMBL4699578.

Known IC50 of a selection of compounds
assay: Inhibition of quorum sensing system in Pseudomonas aeruginosa PAO1 assessed as reduction in […] incubated for 18 hrs by congo red staining based assay

{"compound": "O=C1c2c(O)cc(O)cc2O[C@H](c2ccc(O)c(O)c2)[C@H]1O [(+)-TAXIFOLIN]", "scaleUnit": "mM", "IC50": 4}
{"compound": "O=C1C[C@@H](c2ccc(O)cc2)Oc2cc(O)cc(O)c21", "scaleUnit": "mM", "IC50": 4}
{"compound": "O=C1C[C@@H](c2ccc(O)c(O)c2)Oc2cc(O)cc(O)c21", "scaleUnit": "mM", "IC50": 4}

----------
assay: Inhibition of LuxR in Escherichia coli Top10 assessed as reduction in GFP production using 3OC6HSL as substrate by fluorescence method
pIC50: −log10 of the molar value.

{"compound": "CCOC(=O)/C=C1\\CC(NCc2ccc(C)cc2)C(=O)N1Cc1ccc(C)cc1 (stereo unspecified)", "pIC50": 4.30}

----------
tested on: Vibrio campbellii ATCC BAA-1116; experiment: Inhibition of quorum sensing system in Vibrio harveyi BB120 assessed as delay time for the onset of bioluminescence at 50 ug/ml measured every 10 mins after 5 min of double orbital stirring during 11 hrs 50 mins by luminescence method; details: dose 50.0 µg/ml, time 710.0 min

{"smilesText": "C=C1CCC[C@H]2[C@](C)(Cc3c(O)c(OC(C)=O)cc(OC)c3OC(C)=O)[C@@H](C)CC[C@]12C", "scaleUnit": "h", "TIME": 1}
{"smilesText": "COC1=CC(=O)C(O)=C(C[C@]2(C)[C@@H](C)CC[C@]3(C)OC(=O)CCC[C@@H]23)C1=O", "scaleUnit": "h", "TIME": 0.667}
{"smilesText": "C[C@H]1CC[C@]2(C)C(=O)CCC[C@H]2[C@]1(C)CC1=C(O)C(=O)CC1=O", "scaleUnit": "h", "TIME": 0.667}
{"smilesText": "C=C1CCC[C@H]2[C@](C)(CC3=C(O)C(=O)C=C(O)C3=O)[C@@H](C)CC[C@]12C", "scaleUnit": "h", "TIME": 2.5}

----------
test: Antagonist activity at Vibrio fischeri quorum sensing system in presence of OHHL by bioluminescence method; design: species or system Aliivibrio fischeri
Known IC50 of a selection of compounds

{"smilesText": "O=C(N[C@H]1CCOC1=O)OCc1ccc([N+](=O)[O-])cc1", "scaleUnit": "µM", "IC50": 22}
{"smilesText": "O=C(N[C@H]1CCOC1=O)SCc1ccc([N+](=O)[O-])cc1", "scaleUnit": "µM", "IC50": 23}

----------
test: Antagonist activity at Pseudomonas aeruginosa PAO-JP2 LasR assessed as reduction in GFP production incubated for 6 hrs in presence of OdDHL by fluorescence method
pIC50: −log10 of the molar value.
observationType: pIC50

{"smilesText": "CCCCCCCCCNC(=O)CC(=O)c1ccco1", "numericResult": 5.92}

----------
biological target: Transcriptional activator protein LuxR (Aliivibrio fischeri); test: Antagonist activity at Vibrio fischeri luxR expressed in Escherichia coli NM522 in presence of 3-oxo-C6-HSL
Sequence (P12746 whole entry): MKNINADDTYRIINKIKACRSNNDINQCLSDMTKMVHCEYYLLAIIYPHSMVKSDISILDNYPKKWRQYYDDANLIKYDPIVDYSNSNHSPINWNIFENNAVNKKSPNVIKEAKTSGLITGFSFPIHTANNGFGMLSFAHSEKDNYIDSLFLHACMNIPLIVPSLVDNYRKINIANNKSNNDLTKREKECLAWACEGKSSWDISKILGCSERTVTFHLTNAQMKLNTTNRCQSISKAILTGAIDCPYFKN
observationType: IC50 (µM)

{"compound": "Nc1ccccc1[N+](=O)[O-] [2-NITROANILINE]", "targetOrSystem": "Transcriptional activator protein LuxR (Aliivibrio fischeri)", "observationType": "IC50", "numericResult": 85}
